FYI, the data here is from paper PMC8659243.

Assay: Cytotoxicity against non-malignant HGF cells, MTT method, 48 h
Assay type: cell-based
Conditions: human, gingival fibroblasts (HGF)
Entries and their CC50 at 48 h
Your answer should be a number followed by the unit of measure.

Example entries and their recorded answers appear below.
Cc1ccc(/C=C2\CN(C(=O)CC[N+]3(C)CCC(=NO)CC3)C/C(=C\c3ccc(C)cc3)C2=O)cc1 (stereo not shown) [Compound 4f]: 5120 nM
O=C1/C(=C/c2ccccc2)CN(C(=O)CCN2CCC(=NO)CC2)C/C1=C\c1ccccc1 [Compound 3a]: 7110 nM
Cc1ccc(/C=C2\CN(C(=O)CCN3CCC(=NO)CC3)C/C(=C\c3ccc(C)cc3)C2=O)cc1 [Compound 3f]: 5700 nM
C[N+]1(CCC(=O)N2C/C(=C\c3ccc(Cl)cc3)C(=O)/C(=C/c3ccc(Cl)cc3)C2)CCC(=NO)CC1 (stereo not shown) [Compound 4c]: 1650 nM
O=C1/C(=C/c2ccc(Cl)c(Cl)c2)CN(C(=O)CCN2CCC(=NO)CC2)C/C1=C\c1ccc(Cl)c(Cl)c1 [Compound 3d]: 1910 nM

Incoming: Could you tell me which CC50 at 48 h is on file for COc1cc(/C=C2\CN(C(=O)CCN3CCC(=NO)CC3)C/C(=C\c3cc(OC)c(OC)c(OC)c3)C2=O)cc(OC)c1OC [Compound 3h] ?
Outgoing: 2180 nM

Incoming: Could you tell me which CC50 at 48 h is on file for O=C1/C(=C/c2ccc([N+](=O)[O-])cc2)CN(C(=O)CCN2CCC(=NO)CC2)C/C1=C\c1ccc([N+](=O)[O-])cc1 [Compound 3e] ?
Outgoing: 1670 nM

====

Tested on: HSC-4 cells
Test: Cytotoxicity against HSC-4 cells, MTT method, 48 h
Assay type: cell-based, human
Settings: Homo sapiens, HSC-4; concentration required to kill 50% of the cells; 48 h, MTT; read-out: CC50 HSC-4
Entries and their CC50
All answers are understood in nM, so give the number only.

Example entries and their recorded answers appear below.
C[N+]1(CCC(=O)N2C/C(=C\c3ccc(Cl)c(Cl)c3)C(=O)/C(=C/c3ccc(Cl)c(Cl)c3)C2)CCC(=NO)CC1 (stereo not shown): 30
C[N+]1(CCC(=O)N2C/C(=C\c3ccc(Cl)cc3)C(=O)/C(=C/c3ccc(Cl)cc3)C2)CCC(=NO)CC1 (stereo not shown): 90
O=C1/C(=C/c2ccc(F)cc2)CN(C(=O)CCN2CCC(=NO)CC2)C/C1=C\c1ccc(F)cc1: 200

Proceed to the following item.
Incoming: Could you tell me which CC50 is on file for COc1cccc2c1C(=O)c1c(O)c3c(c(O)c1C2=O)C[C@@](O)(C(=O)CO)C[C@@H]3O[C@H]1C[C@H](N)[C@H](O)[C@H](C)O1 [Doxorubicin, reference compound] ?
Outgoing: 150

====

System: Ca9-22 cells
Assay: Cytotoxicity against Ca9-22 cells, MTT method, 48 h
Assay type: cell-based, human
Settings: average CC50 towards HGF, HPLF, HPC divided by CC50 against Ca9-22
reported endpoint: SI Ca9-22
No unit in the answer, only the number.

O=C1/C(=C/c2ccccc2)CN(C(=O)CCN2CCC(=NO)CC2)C/C1=C\c1ccccc1 [Compound 3a]: 16.9
O=C1/C(=C/c2ccc(Cl)c(Cl)c2)CN(C(=O)CCN2CCC(=NO)CC2)C/C1=C\c1ccc(Cl)c(Cl)c1 [Compound 3d]: 180
O=C1/C(=C/c2ccc(Cl)cc2)CN(C(=O)CCN2CCC(=NO)CC2)C/C1=C\c1ccc(Cl)cc1 [Compound 3c]: 113

Incoming: Could you tell me which SI Ca9-22 is on file for O=C1/C(=C/c2ccc([N+](=O)[O-])cc2)CN(C(=O)CCN2CCC(=NO)CC2)C/C1=C\c1ccc([N+](=O)[O-])cc1 [Compound 3e] ?
Outgoing: 109

Incoming: Could you tell me which SI Ca9-22 is on file for Cc1ccc(/C=C2\CN(C(=O)CC[N+]3(C)CCC(=NO)CC3)C/C(=C\c3ccc(C)cc3)C2=O)cc1 (centres unmarked) [Compound 4f] ?
Outgoing: 53.1
